Target: recombinant alpha-glucosidase from Saccharomyces cerevisiae, which is a maltase (Saccharomyces cerevisiae)
Assay: cell-based or functional assay
Label scheme for Inhibitory activity on α-glucosidase (IC50) in mg/ml: lower than 2 mg/mL is no (0), 2 mg/mL and above is yes (1).

Example results:
VY [VY peptide]: no (0)
LKP [LKP peptide]: yes (1)
VAPG [VAPG (SEQ ID NO: 6)]: no (0)
IY [IY peptide]: yes (1)
GPL [GPL peptide]: no (0)

Q: Could you please find out whether VAP [VAP peptide] has Inhibitory activity on α-glucosidase (IC50) in mg/ml that meets 2 mg/mL or exceeds it?
Result: no (0)

Q: Could you please find out whether KY [KY peptide] has Inhibitory activity on α-glucosidase (IC50) in mg/ml that meets 2 mg/mL or exceeds it?
Result: yes (1)
